# measuredOn: human ROCKα/ROCKII mix (Homo sapiens, UniProt O75116)
# Construct: purchased Upstate Biotechnology 14-451
# Sequence (O75116 11-552 limits assumed): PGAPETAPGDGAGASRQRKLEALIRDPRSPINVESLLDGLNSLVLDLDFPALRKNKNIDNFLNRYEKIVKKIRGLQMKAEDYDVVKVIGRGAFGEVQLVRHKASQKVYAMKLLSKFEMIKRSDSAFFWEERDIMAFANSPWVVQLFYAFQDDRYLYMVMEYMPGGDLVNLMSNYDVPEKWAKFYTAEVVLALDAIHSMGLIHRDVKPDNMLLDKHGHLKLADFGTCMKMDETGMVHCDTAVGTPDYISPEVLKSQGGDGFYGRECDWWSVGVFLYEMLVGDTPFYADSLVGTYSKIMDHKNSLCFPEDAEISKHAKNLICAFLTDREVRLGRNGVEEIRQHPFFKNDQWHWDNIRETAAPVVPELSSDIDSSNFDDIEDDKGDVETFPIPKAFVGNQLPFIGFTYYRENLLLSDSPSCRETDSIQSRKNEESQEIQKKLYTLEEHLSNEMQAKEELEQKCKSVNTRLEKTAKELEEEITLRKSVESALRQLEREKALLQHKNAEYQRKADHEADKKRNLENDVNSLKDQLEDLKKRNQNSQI
# measurementProtocol: Biochemical assay for ROCK (fluorescence polarization, ROCK IMAP Kit)
measuredEndpoint: IC50

- molecule: "CN(CC(N)c1ccc(C(=O)Nc2ccncc2)cc1)C(=O)Cc1c(F)cccc1Cl (centres unmarked) [Compound 496]"
  IC50: "0.5 to 5 µM"
- molecule: "NC(c1ccc(C(=O)Nc2ccncc2)cc1)C1CCCN1C(=O)C1(c2ccc(F)c(Cl)c2)CC1 (centres unmarked) [Compound 607]"
  IC50: "0.5 to 5 µM"
- molecule: "NC(CNC(=S)Nc1ccc(Cl)cc1)c1ccc(C(=O)Nc2ccncc2)cc1 (centres unmarked) [Compound 13]"
  IC50: "0.05 to 0.5 µM"

Shifting focus to the molecule that follows.
# IC50 lookup, item COc1cc(CC(=O)N2CCCC2C(N)c2ccc(C(=O)Nc3ccncc3)cc2)cc(OC)c1OC (centres unmarked) [Compound 532]
0.5 to 5 µM

Value source: patent US20100168102A9
